Origin of measurements: the supplement of paper PMC9233669

Test system: biotinyl-Phe-oxazolone
EXPERIMENT DESCRIPTION: self-aminoacylation, catalytic enhancement (BFO) (fold over background); higher = more active; k-Seq, kA / k0A0; sequences stand for … in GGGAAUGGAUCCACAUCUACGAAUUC…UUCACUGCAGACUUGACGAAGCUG
This sample holds only a part of the variants without activity.
Could you please report measured self-aminoacylation for the items listed next?

Data point: GUUGACCUAGGUCAUCGGGUG [Fam2.2 aminoacylation ribozyme variant] ; self-aminoacylation = 20

Data point: AAUCACCAAGGUCAUCGGGUG [Fam2.2 aminoacylation ribozyme variant] ; self-aminoacylation = 54.3

Data point: AUUCACCUGGGUCAUCAGGUG [Fam2.2 aminoacylation ribozyme variant] ; self-aminoacylation = 6.12

Data point: CCACACUUCUAGCAAUCGGUU [Fam1B.1 aminoacylation ribozyme variant] ; self-aminoacylation = 1.17

Data point: AAGUUUGCUAAUAGUCACAAG [Fam3.1 aminoacylation ribozyme variant] ; self-aminoacylation = 12.3

Data point: CCAUUCUUCAAGCAAUCGGUC [Fam1B.1 aminoacylation ribozyme variant] ; self-aminoacylation = 2.79

Data point: AUUCACCUCGGUCAUCAGGUG [Fam2.2 aminoacylation ribozyme variant] ; self-aminoacylation = 4.3

Data point: AUACACCUAGGUCAUGGGGUG [Fam2.2 aminoacylation ribozyme variant] ; self-aminoacylation = 18.6

Data point: AAGGUUGCUAAUAGUCGCAAU [Fam3.1 aminoacylation ribozyme variant] ; self-aminoacylation = 3.18

Data point: AAGGUUCCUAAUAGUCGCAAG [Fam3.1 aminoacylation ribozyme variant] ; self-aminoacylation = 1.62

Data point: AUUACCUUGGACAUCGAGUGA [Fam2.1 aminoacylation ribozyme variant] ; self-aminoacylation = 26.3

Data point: AUAACCCUAGUCAUCGAGUGA [Fam2.1 aminoacylation ribozyme variant] ; self-aminoacylation = 5.43

Data point: AUUACUCUGGUCAUUGAGUGA [Fam2.1 aminoacylation ribozyme variant] ; self-aminoacylation = 32.7

Data point: AUUCACCUAGGUAUUCGGGUG [Fam2.2 aminoacylation ribozyme variant] ; self-aminoacylation = 21.8

Data point: AUUAUCCUGGUCAACGAGUGA [Fam2.1 aminoacylation ribozyme variant] ; self-aminoacylation = 30.1

Data point: AUUACACUGGUCACCGAGUGA [Fam2.1 aminoacylation ribozyme variant] ; self-aminoacylation = 24.5

Data point: CCACACAUCAAGCAGUCGGUC [Fam1B.1 aminoacylation ribozyme variant] ; self-aminoacylation = 0.847

Data point: ACUCACCUAGGUCAUCGCGUG [Fam2.2 aminoacylation ribozyme variant] ; self-aminoacylation = 70

Data point: AUUCAGCUAGGUCAUCGGAUG [Fam2.2 aminoacylation ribozyme variant] ; self-aminoacylation = 2.91

Data point: AUCCACCCAGGUCAUCGGGUG [Fam2.2 aminoacylation ribozyme variant] ; self-aminoacylation = 40

Data point: AUUCACCUAGCUCAUUGGGUG [Fam2.2 aminoacylation ribozyme variant] ; self-aminoacylation = 5.14

Data point: CUAGUUCUAACAAUCGGUCUG [Fam1A.1 aminoacylation ribozyme variant] ; self-aminoacylation = 0.672

Data point: AUUCGCCUAGGUCAUCGGGUA [Fam2.2 aminoacylation ribozyme variant] ; self-aminoacylation = 391

Data point: AUUCACCUAGGCCAUCCGGUG [Fam2.2 aminoacylation ribozyme variant] ; self-aminoacylation = 32

Data point: CUACUUCAAACUAGCGGUCUG [Fam1A.1 aminoacylation ribozyme variant] ; self-aminoacylation = 1.25

Data point: CUUCACCUAGGACAUCGGGUG [Fam2.2 aminoacylation ribozyme variant] ; self-aminoacylation = 14.1

Data point: UUAACCCUGGUCAUCGAGUGA [Fam2.1 aminoacylation ribozyme variant] ; self-aminoacylation = 20.2

Data point: CUACAUCAAACAAUCGGACUG [Fam1A.1 aminoacylation ribozyme variant] ; self-aminoacylation = 1.11

Data point: AAGUUUGAUAAUAGUCGUAAG [Fam3.1 aminoacylation ribozyme variant] ; self-aminoacylation = 1.38

Data point: CUACUUCAAACAAUCAUUCUG [Fam1A.1 aminoacylation ribozyme variant] ; self-aminoacylation = 3.72

Data point: AAGUUUGCUUAUAGUCGCAAU [Fam3.1 aminoacylation ribozyme variant] ; self-aminoacylation = 1.74

Data point: AUUACCCCGUUCAUCGAGUGA [Fam2.1 aminoacylation ribozyme variant] ; self-aminoacylation = 7.48

Data point: CCAGACUUCAAGCAAUCGGUU [Fam1B.1 aminoacylation ribozyme variant] ; self-aminoacylation = 7.61

Data point: CCACACUUCUAGCAAUCGGUG [Fam1B.1 aminoacylation ribozyme variant] ; self-aminoacylation = 19.8

Data point: AUUACCCUGGUCAUCGAAUUA [Fam2.1 aminoacylation ribozyme variant] ; self-aminoacylation = 0.751
